This collection of values is drawn from ChEMBL document CHEMBL1134406.

TARGET UNDER TEST: Cathepsin S (Homo sapiens, UniProt P25774)
Sequence (P25774 whole entry): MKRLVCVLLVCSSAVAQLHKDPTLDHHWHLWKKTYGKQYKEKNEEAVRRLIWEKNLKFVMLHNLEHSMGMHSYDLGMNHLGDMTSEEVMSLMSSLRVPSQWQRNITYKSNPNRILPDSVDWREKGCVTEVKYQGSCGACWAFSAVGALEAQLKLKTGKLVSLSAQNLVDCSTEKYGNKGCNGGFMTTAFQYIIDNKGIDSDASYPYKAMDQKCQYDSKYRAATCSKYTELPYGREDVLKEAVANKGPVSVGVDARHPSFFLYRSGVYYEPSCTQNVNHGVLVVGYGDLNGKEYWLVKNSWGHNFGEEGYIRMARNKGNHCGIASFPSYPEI
ASSAY SUMMARY: Inhibitory activity against Human cathepsin S
pKi: −log10 of the molar value.
METRIC: pKi

I = CC(C)C[C@H](NC(=O)OCc1ccccc1)C(=O)NC1CCCN(C(=O)[C@H](CC(C)C)NC(=O)OCc2ccccc2)CC1=O (some centres not stated)
II = CC(C)C[C@H](NC(=O)c1cc2cc(OCCN3CCOCC3)ccc2o1)C(=O)N[C@H]1CCCN(C(=O)Cc2cccc(-c3ccccn3)c2)CC1=O
Looking at I and II , which one comes out lower in pKi terms? API: response body contains the label of the selected item.
I

* * *

Read-out record for UniProt P07858: Ki
METRIC: Ki (µM)

1 = CC(C)C[C@H](NC(=O)c1cc2cc(OCCN3CCOCC3)ccc2o1)C(=O)N[C@H]1CCCN(C(=O)Cc2cccc(-c3ccccn3)c2)CC1=O
2 = CC(C)C[C@H](NC(=O)OCc1ccccc1)C(=O)N1CCC(NC(=O)[C@@H](CC(C)C)NC(=O)OCc2ccccc2)C(=O)C1 (some centres not stated)
When their Ki values are compared, which is larger, 1 or 2 ? Reply briefly: the label of your chosen item.
2
(2: 0.44 µM, 1: 0.1 µM)

* * *

# Cathepsin K (Rattus norvegicus, UniProt O35186): Ki values follow
# Sequence (O35186 whole entry): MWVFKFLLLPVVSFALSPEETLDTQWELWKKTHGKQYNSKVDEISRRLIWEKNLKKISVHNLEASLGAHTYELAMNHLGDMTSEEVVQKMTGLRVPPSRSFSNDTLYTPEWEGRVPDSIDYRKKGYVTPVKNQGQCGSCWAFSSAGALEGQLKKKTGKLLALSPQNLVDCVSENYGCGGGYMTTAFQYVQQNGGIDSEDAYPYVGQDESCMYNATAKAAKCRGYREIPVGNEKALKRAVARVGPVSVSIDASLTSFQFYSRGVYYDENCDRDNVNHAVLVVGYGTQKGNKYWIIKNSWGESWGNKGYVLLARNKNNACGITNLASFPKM
METRIC: Ki (nM)

P = CC(C)C[C@H](NC(=O)c1cc2ccccc2o1)C(=O)N[C@H]1CCCN(S(=O)(=O)c2ccccn2)CC1=O
Q = CC(C)C[C@H](NC(=O)c1cc2cc(OCCN3CCOCC3)ccc2o1)C(=O)N[C@H]1CCCN(C(=O)Cc2cccc(-c3ccccn3)c2)CC1=O
Given the two records P and Q , choose the one whose Ki value is lower. Could you answer with the label of the item you picked?
Q

* * *

TARGET UNDER TEST: Cathepsin K (Homo sapiens, UniProt P43235)
METRIC: IC50 (nM)
Report the figure in nM without appending any unit label.

Field request: IC50 | item: CC(C)C[C@H](NC(=O)c1cc2cc(OCCN3CCOCC3)ccc2o1)C(=O)N[C@H]1CCCN(C(=O)Cc2cccc(-c3ccccn3)c2)CC1=O
30

* * *

ASSAY SUMMARY: plasma clearance in male Sprague-Dawley rat
Type: ADME, organism-based
METRIC: clearance (mL/min/kg)

A = CC(C)C[C@H](NC(=O)c1cc2ccccc2o1)C(=O)N[C@@H](C)C(=O)CNS(=O)(=O)c1ccccn1
B = CC(C)C[C@H](NC(=O)c1cc2ccccc2o1)C(=O)N[C@H]1CCCN(S(=O)(=O)c2ccccn2)CC1=O
Could you please tell me which of these two has the higher clearance: A or B ? Lab note: record the label of whichever item you select.
B

* * *

Protein target, amino acids: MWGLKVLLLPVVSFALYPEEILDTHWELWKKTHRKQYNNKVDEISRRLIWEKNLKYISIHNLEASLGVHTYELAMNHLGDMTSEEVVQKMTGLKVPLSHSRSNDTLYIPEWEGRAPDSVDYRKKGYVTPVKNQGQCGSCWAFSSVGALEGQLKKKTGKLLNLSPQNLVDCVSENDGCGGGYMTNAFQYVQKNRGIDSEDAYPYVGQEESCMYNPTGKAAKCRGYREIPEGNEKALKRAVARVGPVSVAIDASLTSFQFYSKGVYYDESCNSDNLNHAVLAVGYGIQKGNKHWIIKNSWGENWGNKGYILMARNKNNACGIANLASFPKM
pKi: −log10 of the molar value.
METRIC: pKi

| COMPOUND | METRIC | NUMBER |
| --- | --- | --- |
| CC(C)C[C@H](NC(=O)c1cc2ccccc2o1)C(=O)N[C@@H](C)C(=O)CN(C)S(=O)(=O)c1ccccn1 | pKi | 6.17 |

I = CC(C)C[C@H](NC(=O)OCc1ccccc1)C(=O)NC1CCCN(C(=O)[C@H](CC(C)C)NC(=O)OCc2ccccc2)CC1=O (stereo not given in full)
II = CC(C)C[C@H](NC(=O)c1cc2cc(OCCN3CCOCC3)ccc2o1)C(=O)N[C@@H]1CCCN(C(=O)Cc2cccc(-c3ccccn3)c2)CC1=O
III = CC(C)C[C@H](NC(=O)c1cc2cc(OCCN3CCOCC3)ccc2o1)C(=O)NC1CCCN(C(=O)Cc2cccc(-c3ccccn3)c2)CC1O (stereo not given in full)
Sort (3 compounds) by pKi: min first. Answer with the labels in sequence, matching the requested order.
III, II, I
(III: 7.27, II: 8.33, I: 8.70)

* * *

ASSAY SUMMARY: volume distribution in male Sprague-Dawley rat
Assay type: ADME, organism-based
PROTOCOL CONDITIONS: in vivo, read-out: Vdss
METRIC: Vd (L/kg)

| MOLECULE SMILES | Vd / L/kg |
| --- | --- |
| CC(C)C[C@H](NC(=O)c1cc2ccccc2o1)C(=O)N[C@@H]1CCCN(S(=O)(=O)c2ccccn2)CC1=O | 1.64 |

P = CC(C)C[C@H](NC(=O)c1cc2ccccc2o1)C(=O)N[C@@H](C)C(=O)CN(C)S(=O)(=O)c1ccccn1
Q = CC(C)C[C@H](NC(=O)c1cc2ccccc2o1)C(=O)NCC(=O)CNS(=O)(=O)c1ccccn1
I'm curious, which of these has a smaller Vd number: P or Q ? Respond using the label that marks the chosen record.
Q
(Q: 0.65 L/kg, P: 1.15 L/kg)

* * *

TARGET UNDER TEST: Procathepsin L (Homo sapiens, UniProt P07711)
Sequence (P07711 whole entry): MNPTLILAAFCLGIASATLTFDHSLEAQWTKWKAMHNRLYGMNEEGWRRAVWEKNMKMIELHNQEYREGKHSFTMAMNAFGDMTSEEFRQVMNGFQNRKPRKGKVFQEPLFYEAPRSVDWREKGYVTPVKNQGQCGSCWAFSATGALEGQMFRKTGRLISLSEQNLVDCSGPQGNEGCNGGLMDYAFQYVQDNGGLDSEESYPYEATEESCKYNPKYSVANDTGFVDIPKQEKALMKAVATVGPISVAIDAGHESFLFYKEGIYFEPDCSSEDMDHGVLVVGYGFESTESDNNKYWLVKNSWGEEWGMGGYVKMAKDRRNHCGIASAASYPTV
pKi: −log10 of the molar value.
METRIC: pKi

1 = CC(C)C[C@H](NC(=O)c1cc2cc(OCCN3CCOCC3)ccc2o1)C(=O)N[C@H]1CCCN(C(=O)Cc2cccc(-c3ccccn3)c2)CC1=O
2 = CC(C)C[C@H](NC(=O)OCc1ccccc1)C(=O)N[C@@H]1CCCN(C(=O)[C@H](CC(C)C)NC(=O)OCc2ccccc2)CC1=O
Out of 1 and 2 , name the one with the higher pKi. // return label of chosen record
1

* * *

ASSAY SUMMARY: half life period in male Sprague-Dawley rat
Assay type: ADME, organism-based
PROTOCOL CONDITIONS: in vivo
METRIC: half-life (min)

Worked set:
| MOLECULE SMILES | half-life, min |
| --- | --- |
| CC(C)C[C@H](NC(=O)c1cc2ccccc2o1)C(=O)N[C@@H](C)C(=O)CN(C)S(=O)(=O)c1ccccn1 | 21.5 |
| CC(C)C[C@H](NC(=O)c1cc2ccccc2o1)C(=O)N[C@H]1CCCN(S(=O)(=O)c2ccccn2)CC1=O | 29.8 |

a = CC(C)C[C@H](NC(=O)c1cc2ccccc2o1)C(=O)NCC(=O)CNS(=O)(=O)c1ccccn1
b = CC(C)C[C@H](NC(=O)c1cc2cc(OCCN3CCOCC3)ccc2o1)C(=O)N[C@H]1CCCN(C(=O)Cc2cccc(-c3ccccn3)c2)CC1=O
Compare a and b and name the one whose reported half-life is smaller. # reply format: chosen label
a

* * *

ASSAY SUMMARY: Bioavailability in rat (Sprague-Dawley) (male)
Type: ADME, organism-based
PROTOCOL CONDITIONS: in vivo
METRIC: bioavailability (%)

Some entries whose results are on file:
| MOLECULE SMILES | METRIC | NUMBER |
| --- | --- | --- |
| CC(C)C[C@H](NC(=O)c1cc2ccccc2o1)C(=O)N[C@@H](C)C(=O)CN(C)S(=O)(=O)c1ccccn1 | bioavailability | 2.5 |
| CC(C)C[C@H](NC(=O)c1cc2ccccc2o1)C(=O)N[C@@H](C)C(=O)CNS(=O)(=O)c1ccccn1 | bioavailability | 3.2 |

A = CC(C)C[C@H](NC(=O)c1cc2cc(OCCN3CCOCC3)ccc2o1)C(=O)N[C@H]1CCCN(C(=O)Cc2cccc(-c3ccccn3)c2)CC1=O
B = CC(C)C[C@H](NC(=O)c1cc2ccccc2o1)C(=O)N[C@@H]1CCCN(S(=O)(=O)c2ccccn2)CC1=O
C = CC(C)C[C@H](NC(=O)c1cc2ccccc2o1)C(=O)N[C@H]1CCCN(S(=O)(=O)c2ccccn2)CC1=O
D = CC(C)C[C@H](NC(=O)c1cc2ccccc2o1)C(=O)NCC(=O)CNS(=O)(=O)c1ccccn1
In this exercise, place the 4 compounds in ascending sequence of their recorded bioavailability. Response field: labels, in requested order.
A, D, B, C

* * *

ASSAY SUMMARY: plasma clearance in male Sprague-Dawley rat
Assay type: ADME, organism-based
METRIC: clearance (mL/min/kg)

| MOLECULE SMILES | MEASUREMENT UNIT | NUMBER |
| --- | --- | --- |
| CC(C)C[C@H](NC(=O)c1cc2ccccc2o1)C(=O)NCC(=O)CNS(=O)(=O)c1ccccn1 | mL/min/kg | 33.1 |
| CC(C)C[C@H](NC(=O)c1cc2ccccc2o1)C(=O)N[C@@H](C)C(=O)CN(C)S(=O)(=O)c1ccccn1 | mL/min/kg | 44.6 |
| CC(C)C[C@H](NC(=O)c1cc2ccccc2o1)C(=O)N[C@@H]1CCCN(S(=O)(=O)c2ccccn2)CC1=O | mL/min/kg | 51.9 |
| CC(C)C[C@H](NC(=O)c1cc2cc(OCCN3CCOCC3)ccc2o1)C(=O)N[C@H]1CCCN(C(=O)Cc2cccc(-c3ccccn3)c2)CC1=O | mL/min/kg | 39.7 |
